target: Carcinoembryonic antigen (CEA) (Homo sapiens, UniProt P06731 P06731:35-685); experiment: FP; physiological binding buffer; table header prints nM-1, text nM; details: tags: Calbiochem; label: 5'-fluorescein
Sequence (P06731 35-685, one chain of several): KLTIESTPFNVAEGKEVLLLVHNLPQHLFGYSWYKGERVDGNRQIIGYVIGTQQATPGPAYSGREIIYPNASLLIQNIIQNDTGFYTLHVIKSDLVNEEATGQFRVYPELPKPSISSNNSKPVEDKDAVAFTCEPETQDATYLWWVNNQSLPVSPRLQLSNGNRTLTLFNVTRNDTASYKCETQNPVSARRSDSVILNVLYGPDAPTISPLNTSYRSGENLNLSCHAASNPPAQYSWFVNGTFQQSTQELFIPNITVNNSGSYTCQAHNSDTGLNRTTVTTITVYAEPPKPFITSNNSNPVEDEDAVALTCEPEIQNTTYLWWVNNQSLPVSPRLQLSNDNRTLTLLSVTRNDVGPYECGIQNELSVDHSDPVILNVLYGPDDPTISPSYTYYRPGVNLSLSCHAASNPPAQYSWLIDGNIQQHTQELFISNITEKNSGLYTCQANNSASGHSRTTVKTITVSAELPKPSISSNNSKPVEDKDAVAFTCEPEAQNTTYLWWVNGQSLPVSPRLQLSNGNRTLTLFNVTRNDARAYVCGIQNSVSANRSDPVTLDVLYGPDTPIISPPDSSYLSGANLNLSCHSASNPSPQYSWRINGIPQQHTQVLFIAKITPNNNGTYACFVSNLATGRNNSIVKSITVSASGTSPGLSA
pKd: −log10 of the molar value.

BINDER	pKd
ATACCAGCTTATTCAATTGGGGTAGGGGGCGAAGCGATACCCTAATCAGC (ssDNA) [clone26bases1-50]	8.40

Entry source: patent US20100254901
